Data origin: patent US20060094649A1

Target: HLA-A*1101 (Homo sapiens, UniProt P04439, A114D/D185E/E176A/F33Y/L180Q/S129P/T187R)
Assay: Class I peptide-binding assay, HLA-A*1101
Details: Table 16d, p53-derived
No end group written: not given here.
measured.quantity: pIC50
Scale: negative log10 of molar concentration, which is what pIC50 denotes.

Q: Find the recorded pIC50 belonging to SSCMGGMNR [compound 117] and report it.
Ans: 8.37

* * *

Biological target: HLA-A*0301 (Homo sapiens, UniProt P04439)
Assay: Class I peptide-binding assay, HLA-A*0301
Conditions: Table 16d, p53-derived
No end group written: not given here.
measured.quantity: IC50 (nM)
Respond with the bare value in nM.

Q: Give recorded IC50 with HLA-A*0301 (Homo sapiens, UniProt P04439) for the following sequence: SSCMGGMNR [compound 117]
Ans: 550
